System: HEK293FT dCK*-IKZF1
Assay: relative growth recovery (pomalidomide 10 uM = 100%, DMSO = 0%); higher = more growth rescue (IKZF1 fusion degradation)
Settings: compound concentration: 5 uM; AraC concentration: 0.3 uM; overnight pretreatment + 4 days AraC
Answer each item with its documented relative growth recovery.
Numbers only here, please. The scale is %.

Task: Give the value of relative growth recovery reported for the following: O=C(O)c1ccc(S(=O)(=O)N(Cc2ccc(OC(F)(F)F)cc2)c2ncc(C(F)(F)F)cc2Cl)cc1
Output: 2.16

Task: Give the value of relative growth recovery reported for the following: NC(=O)C(c1ccccc1)(c1ccc(F)cc1)c1ccc(F)cc1
Output: -0.855

Task: Give the value of relative growth recovery reported for the following: O=C(c1cccc(Cl)c1F)N1CCN(Cc2cccc(Nc3nccs3)n2)CC1
Output: -11.2

Task: Give the value of relative growth recovery reported for the following: O=c1c(O)c(-c2ccc(O)c(O)c2)oc2cc(O)ccc12
Output: -3.06

Task: Give the value of relative growth recovery reported for the following: O=C(NCCO[N+](=O)[O-])c1cccnc1
Output: -1.74

Task: Give the value of relative growth recovery reported for the following: COc1ccc(-c2ccc3c(N4CCOC[C@@H]4C)nc(N4CCOC[C@@H]4C)nc3n2)cc1CO
Output: -13.8

Task: Give the value of relative growth recovery reported for the following: Cc1cc(/C=C2\SC(=O)N(c3ccccc3)C2=O)c(C)n1-c1cccnc1
Output: 0.895

Task: Give the value of relative growth recovery reported for the following: CCN(CC)CCOc1ccc2c(c1)C(=O)c1cc(OCCN(CC)CC)ccc1-2
Output: -8.99

Task: Give the value of relative growth recovery reported for the following: N#CC(c1ccccc1)(c1ccccc1)c1ccccc1Cl
Output: -0.3

Task: Give the value of relative growth recovery reported for the following: CC(CNC1CCCCC1)OC(=O)c1ccccc1 (stereo not drawn)
Output: -0.215

Task: Give the value of relative growth recovery reported for the following: Cc1ncsc1-c1ccc(CNC(=O)[C@@H]2C[C@@H](O)CN2C(=O)[C@@H](NC(=O)COCCOCCOCCOc2ccc(-c3ccc4ncnc(Nc5ccc(OCc6cccc(F)c6)c(Cl)c5)c4c3)cc2)C(C)(C)C)cc1
Output: 4.09

Task: Give the value of relative growth recovery reported for the following: CC(C)(C#N)c1ccc(N2C(=O)OCc3cnc4ccc(-c5cnc6ccccc6c5)cc4c32)cc1
Output: -2.14

Task: Give the value of relative growth recovery reported for the following: NC(=O)c1nnn(Cc2cc(Cl)c(C(=O)c3ccc(Cl)cc3)c(Cl)c2)c1N
Output: -2.6

Task: Give the value of relative growth recovery reported for the following: COc1ccc(-c2nc3cc(C4=NNC(=O)CC4C)ccc3[nH]2)cc1 (stereo not drawn)
Output: -0.495

Task: Give the value of relative growth recovery reported for the following: COc1cc(N2CCN(C)CC2)ccc1Nc1nccc(-c2cn(C)c3cnccc23)n1
Output: -0.12

Task: Give the value of relative growth recovery reported for the following: CC[C@H](C)[C@H]1O[C@]2(CC[C@@H]1C)C[C@@H]1C[C@@H](C/C=C(\C)[C@@H](O[C@H]3C[C@H](OC)[C@@H](O[C@H]4C[C@H](OC)[C@@H](O)[C@H](C)O4)[C@H](C)O3)[C@@H](C)/C=C/C=C3\CO[C@@H]4[C@H](O)C(C)=CC(C(=O)O1)[C@]34O)O2 (stereo partly drawn)
Output: 0.635

Task: Give the value of relative growth recovery reported for the following: CCCCCCC[N+](CC)(CC)CCCCc1ccc(Cl)cc1
Output: -1.53

Task: Give the value of relative growth recovery reported for the following: C/C=C(/C(=C/C)c1ccc(O)cc1)c1ccc(O)cc1
Output: -1.6

Task: Give the value of relative growth recovery reported for the following: O=C(CCCCCCC(=O)NO)NO
Output: -0.655

Task: Give the value of relative growth recovery reported for the following: CC[C@]1(O)C[C@@H]2C[N@@](CCc3c([nH]c4ccccc34)[C@@](C(=O)OC)(c3cc4c(cc3OC)N(C)[C@H]3[C@@](O)(C(=O)OC)[C@H](OC(C)=O)[C@]5(CC)C=CCN6CC[C@]43[C@@H]65)C2)C1.O=S(=O)(O)O [Vinblastine (sulfate)]
Output: -11.4

Task: Give the value of relative growth recovery reported for the following: Nc1cc(N2CCCCC2)nc(N)[n+]1[O-]
Output: -0.55

Task: Give the value of relative growth recovery reported for the following: COC(=O)C1=C(C)NC(C)=C([N+](=O)[O-])C1c1ccccc1C(F)(F)F (racemic)
Output: -0.605

Task: Give the value of relative growth recovery reported for the following: CCCCOC(=O)c1ccc(N)cc1
Output: -0.295

Task: Give the value of relative growth recovery reported for the following: O=C1C=CC(=O)C2=C1C1c3ccccc3C2c2ccccc21
Output: -0.735

Task: Give the value of relative growth recovery reported for the following: CC(C)c1ccc(NC(=O)Cn2cnc3c2c(=O)n(C)c(=O)n3C)cc1
Output: -1.03

Task: Give the value of relative growth recovery reported for the following: C[C@H]1NCc2cc(-c3ccc4c(=O)c(C(=O)O)cn(C5CC5)c4c3OC(F)F)ccc21 [Garenoxacin (Mesylate hydrate)]
Output: -1.59

Task: Give the value of relative growth recovery reported for the following: COc1ccc(/C=C/C(=O)/C=C(O)/C=C/c2ccc(OC)c(OC)c2)cc1OC
Output: -5.62

Task: Give the value of relative growth recovery reported for the following: COCC(=O)O[C@]1(CCN(C)CCCc2nc3ccccc3[nH]2)CCc2cc(F)ccc2[C@@H]1C(C)C
Output: -3.87

Task: Give the value of relative growth recovery reported for the following: CCCCCCCCCCCC1=C(O)C(=O)C=C(O)C1=O
Output: -3.97

Task: Give the value of relative growth recovery reported for the following: COC1=C2C[C@@H](C)C[C@H](OC)[C@H](O)[C@@H](C)/C=C(\C)[C@H](OC(N)=O)[C@@H](OC)/C=C\C=C(/C)C(=O)NC(=CC1=O)C2=O
Output: -11.4

Task: Give the value of relative growth recovery reported for the following: CSc1nc2cc(Cl)c(Oc3cccc(Cl)c3Cl)cc2[nH]1
Output: 0.015

Task: Give the value of relative growth recovery reported for the following: CO[C@H]1CC[C@H](N2C(=O)CNc3ncc(-c4ccc(C(C)(C)O)nc4)nc32)CC1
Output: -7.24

Task: Give the value of relative growth recovery reported for the following: O=C(Nc1ccc(S(=O)(=O)Nc2ccccc2Cl)c(Cl)c1)c1ccccn1
Output: -1.18
